Assay: Solubility at various pH and in biorelevant media (Table 1B)
Format: physicochemical
Settings: pH 4.5, aqueous buffer, thermodynamic from solid, pH 4.5; read-out: Solubility
measurement_label: Solubility (µg/mL)
Numbers only; they are read as µg/mL.

compound Cc1ccc(NC(=O)c2ccnc(C(F)(F)F)c2)cc1-c1cc(OCCO)nc(N2CCOCC2)c1 [Compound A (free base)] , Solubility observed: 2

* * *

Test: Solubility at 25° C. in SGF, FaSSIF, FeSSIF (Table 1A)
Assay type: physicochemical
Conditions: FeSSIF, 25 °C, thermodynamic from solid
measurement_label: Solubility (µg/mL)
Please reply with the bare figure in µg/mL and do not write the unit itself.

// Cc1ccc(NC(=O)c2ccnc(C(F)(F)F)c2)cc1-c1cc(OCCO)nc(N2CCOCC2)c1 [Compound A (free base)] : Solubility value = 137

* * *

Experiment: Solubility at various pH and in biorelevant media (Table 1B)
Assay type: physicochemical
Conditions: pH 7.4, aqueous buffer, thermodynamic from solid, pH 7.4; read-out: Solubility
measurement_label: Solubility (µg/mL)
Only the number, expressed in µg/mL, is required.

compound Cc1ccc(NC(=O)c2ccnc(C(F)(F)F)c2)cc1-c1cc(OCCO)nc(N2CCOCC2)c1 [Compound A (free base)] , Solubility observed: 1
